# target-entity: CCK-Receptor (Rattus norvegicus, UniProt P30551)
# Construct: Pancreatic plasma membranes were prepared by the method of Chang et al
# Sequence (P30551 whole entry): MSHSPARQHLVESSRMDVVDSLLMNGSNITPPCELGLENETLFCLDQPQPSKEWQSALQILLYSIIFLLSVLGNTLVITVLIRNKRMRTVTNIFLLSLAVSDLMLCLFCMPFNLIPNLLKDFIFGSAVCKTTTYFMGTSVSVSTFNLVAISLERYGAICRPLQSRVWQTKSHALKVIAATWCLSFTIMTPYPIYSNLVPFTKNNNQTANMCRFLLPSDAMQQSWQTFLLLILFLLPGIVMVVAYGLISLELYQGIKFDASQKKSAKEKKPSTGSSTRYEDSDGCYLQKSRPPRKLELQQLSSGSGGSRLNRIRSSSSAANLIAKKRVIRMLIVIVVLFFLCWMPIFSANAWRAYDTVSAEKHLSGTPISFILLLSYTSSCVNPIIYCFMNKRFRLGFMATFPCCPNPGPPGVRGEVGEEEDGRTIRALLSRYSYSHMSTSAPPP
# measurement-protocol: CCK-Receptor Binding Assay in Pancreas
# condition-label: inhibition of specific 125I-CCK-8 (30 pM) binding, rat pancreatic plasma membranes, 37° C., 30 minutes, pH 7.4
measure: IC50 (µM)
Give just the number in µM; leave the unit off.

Give measured IC50 for CCCCCN(CCCCC)C(=O)C(CCC(=O)O)CS(=O)(=O)c1cccc(Cl)c1 (racemic) [Compound 27] (CCK-Receptor (Rattus norvegicus, UniProt P30551)).
4.7

Give measured IC50 for COC(=O)CCC(CS(=O)(=O)c1ccc(Cl)c(Cl)c1)C(=O)N(C)Cc1ccccc1 (stereo not drawn) [Compound 41] (CCK-Receptor (Rattus norvegicus, UniProt P30551)).
3.5

Give measured IC50 for CCCCCN(CCCOC)C(=O)C(CCC(=O)O)CS(=O)(=O)c1ccc(Cl)c(Cl)c1 (racemic) [Compound 22] (CCK-Receptor (Rattus norvegicus, UniProt P30551)).
0.23
